Kindly state pIC50 for each of the entries shown.
System: Plasmodium falciparum
Experiment Notes: Antimalarial activity: Asexual Blood Stage Plasmodium falciparum 3D7 IC50 (uM)
Format: functional, organism-based
Give bare numbers, as −log10 of the molar value.

// solved cases for pIC50 follow
| Compound | pIC50 |
| --- | --- |
| CCOc1ccccc1NC(C)C(=O)Nc1cc(C(F)(F)F)ccc1N1CCOCC1 (stereo not given) | 6.38 |
| Cc1cccc(C(=O)Nc2ccnc(N(C)C3CCN(CC(C)C)CC3)c2)c1 | 5.68 |
| CCOc1ccc(-c2nc(NC(=O)CS(=O)(=O)c3ccccc3)sc2C)cc1 | 6.18 |
| Cc1cc(C(=O)Nc2ccc(-c3ccccc3)cc2)no1 | 6.09 |
| CN1CCC(NCc2cccc(-c3ccc(S(=O)(=O)NCc4ccccc4)cc3)c2)CC1 | 6.09 |

Report pIC50 for each item below.
1. COc1cccc(CC(=O)N2CCC(n3c(C)nc4ccc(F)cc43)CC2)c1
2. Clc1cccc(C(c2ccc(CN3CCNCC3)cc2)n2ccnc2)c1 (stereo not given)
3. Cc1noc(C)c1C(=O)N1CCCC(c2[nH]c3c(C)cccc3c2-c2ccncc2)C1 (stereo not given)
4. CC(C)(C)CN1C(=O)C(c2ccccc2)(c2ccccc2)N=C1N
5. FC(F)(F)c1cnc(Sc2nnc(-c3ccncc3)o2)c(Cl)c1
6. O=C(c1ccc(NCCO)cc1)C1C[C@H]1c1ccc(Cl)cc1 (stereo not given in full)

[6.62, 5.79, 6.03, 6.10, 6.57, 6.18]

Which pIC50 is listed for `CCCNC(=O)N1CCC2(CC1)CC(=O)c1cc(C)ccc1O2` ? 5.69

----------
Tested on: Mycobacterium tuberculosis
Experiment Notes: AntiMycobacterium tuberculosis activity 1-week 7H9/glucose/BSA/Tx MIC (uM)
Assay type: functional
Measurement Parameters: 168 h
Kindly supply the reported MIC values for the records listed here.
Give bare numbers, in µM.

// worked examples, MIC included
| Smi | MIC (µM) |
| --- | --- |
| O=C(NCc1ccoc1)N1CCN(Cc2ccc3c(c2)OCO3)CC1 | 37 |
| O=C(Nc1nc(-c2ccccn2)cs1)c1cncn1-c1ccccc1 | 19 |
| Cc1cc(O)nc(-n2nc(C)cc2C)n1 | 25 |

Given the entry `COc1ccc2nccc(NC(=O)C3CCN(CCc4ccc(Cl)cc4)CC3)c2n1` , report its measured MIC. 0.39

----------
Record form. Attribute: IC50. Fill in for each entry.
System: Trypanosoma brucei
Experiment Notes: AntiTrypanosoma brucei activity T. b. rhodesiense IC50 (uM)
Format: functional, organism-based

Solved entries:
| Smi | IC50 |
| --- | --- |
| COC(=O)c1cccc2oc(-c3cccc(OC)c3NC(=O)c3cc(-c4ccccc4)on3)nc12 | > 32000 nM |
| CNC(=O)c1nn(C)c2c1C(C)(C)Cc1cnc(Nc3ccc(N4CCN(C)CC4)cc3)nc1-2 | < 130 nM |

# ---- query compound ----
What value of IC50 has been reported for the following compound? `O=C(NCCc1ccn(-c2ccccc2)n1)C1CCCCC1` < 130 nM

----------
System: HepG2
Experiment Notes: Cytotoxicity data HepG2 CC20 (uM)
Format: functional
For each record, write down the corresponding CC20.

Sample records with CC20:
| Molecule | Meas Value |
| --- | --- |
| CC(C)c1ncc(-c2ccncc2)c([C@H]2CC[C@H](CNC(=O)c3cccnc3)CC2)n1 | >80 µM |
| CNC(=O)c1nn(C)c2c1C(C)(C)Cc1cnc(Nc3ccc(N4CCN(C)CC4)cc3)nc1-2 | <0.26 µM |
| Cc1noc(C)c1C(=O)N1CCCC(c2[nH]c3c(C)cccc3c2-c2ccncc2)C1 (configuration not stated) | >80 µM |

Each molecule below has a recorded value; state its CC20.
1. Cc1cc(C(=O)Nc2ccc(-c3ccccc3)cc2)no1
2. C[C@H](C(N)=O)N1CCCC[C@H]1c1ccc(OCc2cccc(F)c2)cc1

[">80 µM", ">80 µM"]

----------
Tested on: Cryptosporidium parvum
Experiment Notes: AntiCryptosporidium parvum activity Compounds added at t0, IC 50 (uM)
Assay type: functional, organism-based
Property Name: IC50

| Compound | IC50 |
| --- | --- |
| Clc1ccc(-n2cc(COc3ccnc4ccccc34)nn2)cc1 | > 5 µM |
| CC(C)C(Oc1cccc2ccccc12)C(=O)O (stereo not drawn) | > 10 µM |

Entry under review: `COc1cc(NC(=O)Cc2nn(C)c(=O)c3ccccc23)ccc1Cl` . Reported IC50? < 0.1 µM

----------
Tested on: Plasmodium falciparum
Experiment Notes: Antimalarial activity: Asexual Blood Stage Plasmodium falciparum 3D7 IC50 (uM)
Type: functional, organism-based
pIC50: −log10 of the molar value.
Could you please report measured pIC50 for the items listed next?

| Molecule | pIC50 |
| --- | --- |
| c1ccc(-c2cc(N3CCCCC3)c3ccccc3n2)nc1 | < 5.70 |
| O=C(Nc1nc(-c2ccccn2)cs1)C1CC1c1ccccc1F (stereo not drawn) | < 5.70 |

# ---- query molecule ----
So what's the measured pIC50 for this one? `CCCn1c(NC(=O)c2ccc3ccccc3n2)nc2ccccc21` < 5.70

----------
Test system: Mycobacterium tuberculosis
Experiment Notes: AntiMycobacterium tuberculosis activity 1-week 7H9/glucose/BSA/Tx MIC (uM)
Assay type: functional
Measurement Parameters: 168 h
Property Name: MIC

// known answers, use as guide
| Compound | MIC |
| --- | --- |
| CC1COC2(CCN(c3nc(=O)c4cc(C(F)(F)F)cc([N+](=O)[O-])c4s3)CC2)O1 (stereo not drawn) | < 0.02 µM |
| O=C(NC1=NCCS1)c1sc2cc(F)ccc2c1Cl | > 50 µM |

Value lookup for MIC; key = `Cc1cc(C)c2cc(C(=O)NC3CCCCCCC3)[nH]c2c1` < 0.02 µM

----------
Test system: HepG2
Experiment Notes: Cytotoxicity data HepG2 CC20 (uM)
Format: functional
Property Name: CC20 (µM)
Answers are plain numbers, in µM.

| Compound | Unit Abbreviation | CC20 |
| --- | --- | --- |
| CCCCc1ccc(NC(=O)Nc2ccc(O[C@H]3CCCC[C@@H]3N(C)c3ccccc3)c(F)c2)cc1 | µM | 5.77 |
| CC(=O)N(CCN(C(=O)c1ccc(F)cc1)c1ccccc1)c1ccccc1 | µM | 39 |
| Cc1ccc(NC(=O)c2nc[nH]c2C(=O)Nc2nc3ccccc3[nH]2)c(C)c1 | µM | 8.43 |

Field: CC20. Fill in for each record below.
1. c1csc(-c2cnc3sc(NCC4CCOCC4)nn23)c1
2. c1ccc(Oc2ccc(-c3cc(N4CCNCC4)[nH]n3)cc2)cc1
3. COc1ccc(CN2CCOc3ccc(C(C)(O)CN(C)C)cc3C2)cc1C (configuration not stated)
4. Cc1cc(Nc2ccncc2)n2nc(C)c(-c3ccccc3Cl)c2n1

1. 30
2. 6.43
3. 17.4
4. 80

Values were extracted from ChEMBL document CHEMBL3832761.
